B1: VH:VL chains; a variant is named by its letters at X, in order (parent)
chain 1: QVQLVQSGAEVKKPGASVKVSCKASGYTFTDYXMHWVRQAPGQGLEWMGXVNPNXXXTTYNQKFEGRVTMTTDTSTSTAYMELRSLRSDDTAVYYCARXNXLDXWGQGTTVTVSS
chain 2: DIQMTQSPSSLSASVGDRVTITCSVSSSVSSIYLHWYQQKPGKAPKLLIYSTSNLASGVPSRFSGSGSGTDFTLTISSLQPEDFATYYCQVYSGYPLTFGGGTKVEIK

# Variants of: B1
# assay.remarks: yeast display scFab, FACS + sequencing
# condition: with MET
This is one part of the list. How many sequences the whole screen found active is unknown.
assay.endpoint: antigen binding call

Worked examples follow.
>  <mutation.list>
VEAGDAGS

>  <assay.result>
no binding

$$$$
>  <mutation.list>
YRTRDSGV

>  <assay.result>
binds

$$$$
>  <mutation.list>
YRAKGAGV

>  <assay.result>
binds

$$$$
>  <mutation.list>
FKTGGAAV

>  <assay.result>
binds

$$$$
>  <mutation.list>
FTEGDSGY

>  <assay.result>
no binding

$$$$
>  <mutation.list>
FKTKSDAV

>  <assay.result>
no binding

$$$$
>  <mutation.list>
SGGGNDLA chain 1 R87K

>  <assay.result>
no binding

$$$$
>  <mutation.list>
YEERTAAA

>  <assay.result>
no binding

$$$$
>  <mutation.list>
VRGRSSAA

>  <assay.result>
binds

$$$$
>  <mutation.list>
YRARGAVS

>  <assay.result>
binds

$$$$

### Prompt Fill in the blank: the reported antigen binding call of YRARGSWD is ____.
### Response binds

### Prompt Requested field: antigen binding call. Item: YRAKGSGV
### Response binds

### Prompt Using the record for FRGGSVGY , report its antigen binding call.
### Response no binding

### Prompt I am curious: what antigen binding call value has been reported for SEARSSSD ?
### Response no binding

### Prompt Can you share its antigen binding call? I mean this variant: YRTKGSGV
### Response binds

### Prompt I am curious: what antigen binding call value has been reported for VGGGGDGS ?
### Response no binding

### Prompt For the variant YKGKGAWD , what antigen binding call is on record?
### Response binds
